Values compiled from ChEMBL document CHEMBL1275331.

# target: 5-hydroxytryptamine receptor 1A (Homo sapiens)
# Sequence (P08908 whole entry): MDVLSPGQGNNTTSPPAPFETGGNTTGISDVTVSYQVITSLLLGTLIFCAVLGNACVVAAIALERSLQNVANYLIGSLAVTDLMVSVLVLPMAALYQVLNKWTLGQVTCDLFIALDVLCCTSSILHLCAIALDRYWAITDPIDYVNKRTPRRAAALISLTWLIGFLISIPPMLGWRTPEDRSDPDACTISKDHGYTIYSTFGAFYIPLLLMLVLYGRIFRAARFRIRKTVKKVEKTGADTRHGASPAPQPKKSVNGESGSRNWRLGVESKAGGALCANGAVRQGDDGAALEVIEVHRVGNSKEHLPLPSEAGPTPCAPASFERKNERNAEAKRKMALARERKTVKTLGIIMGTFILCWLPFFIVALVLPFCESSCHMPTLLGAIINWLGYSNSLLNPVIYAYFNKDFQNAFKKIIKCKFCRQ
# methodDescription: Displacement of [3H]8-OH-DPAT from human 5HT1A receptor expressed in CHO cells by liquid scintillation counting
# Format: cell-based
endpointLabel: IC50

1) CC1CCc2nc(CCCCN3CCN(c4ccc5ccccc5n4)CC3)n(N)c(=O)c2C1 (stereo not given); < 10 nM
2) Nn1c(CCCCN2CCN(c3nc4ccccc4c4c3CCC4)CC2)nc2c(c1=O)CCCC2; 62.3 nM
3) Nn1c(CCCCN2CCN(c3ccc4ccccc4n3)CC2)nc2c(c1=O)CCCCC2; < 10 nM
4) Nn1c(CCCCN2CCN(c3ccc4ccccc4n3)CC2)nc2ccc(F)cc2c1=O; < 10 nM
5) Nn1c(CCCN2CCN(c3ccc4ccccc4n3)CC2)nc2c(c1=O)CCCC2; 90.4 nM
